Cited source: ChEMBL document CHEMBL4145534

Quick note: these are pKi numbers for system: 5-hydroxytryptamine receptor 7 (Homo sapiens, UniProt P34969)
Sequence (P34969 whole entry): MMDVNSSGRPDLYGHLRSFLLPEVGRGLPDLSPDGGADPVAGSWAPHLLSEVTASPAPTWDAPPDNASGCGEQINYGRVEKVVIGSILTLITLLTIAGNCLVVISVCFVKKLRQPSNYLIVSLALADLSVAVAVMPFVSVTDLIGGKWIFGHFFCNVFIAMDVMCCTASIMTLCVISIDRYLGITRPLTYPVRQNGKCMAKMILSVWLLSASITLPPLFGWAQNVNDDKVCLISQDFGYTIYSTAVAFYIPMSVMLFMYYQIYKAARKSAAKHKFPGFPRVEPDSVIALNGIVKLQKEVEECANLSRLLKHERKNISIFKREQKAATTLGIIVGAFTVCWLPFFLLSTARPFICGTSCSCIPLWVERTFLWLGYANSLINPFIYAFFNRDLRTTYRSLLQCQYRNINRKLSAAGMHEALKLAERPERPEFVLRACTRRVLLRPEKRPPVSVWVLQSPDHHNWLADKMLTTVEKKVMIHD
Answers are plain numbers, as −log10 of the molar value.

Here are 2 molecules together with their reported answers.
MOLECULE | pKi
COc1ccccc1N1CCN(CC(O)CN2C(=O)NC(c3ccccc3)(c3ccccc3)C2=O)CC1 (racemic) | 6.25
CC1(c2ccc(Cl)cc2)NC(=O)N(CC(O)CN2CCN(c3ccccc3C#N)CC2)C1=O.Cl (racemic) | 8.05

// batch mode: one pKi value per listed entry
1. CCOc1ccccc1N1CCN(CC(O)CN2C(=O)NC(C)(c3ccccc3)C2=O)CC1.Cl (racemic)
2. CC1(c2ccc(Br)cc2)NC(=O)N(CC(O)CN2CCN(c3ccccc3C#N)CC2)C1=O.Cl (racemic)
3. COc1ccccc1N1CCN(CC(O)CN2C(=O)NC(C)(c3ccc(Cl)cc3)C2=O)CC1.Cl (racemic)
4. COc1ccccc1N1CCN(CC(O)CN2C(=O)NC(C)(c3ccc(Br)cc3)C2=O)CC1.Cl (racemic)
5. COc1ccccc1N1CCN(CC(O)CN2C(=O)NC(C)(c3ccc(C)cc3)C2=O)CC1 (racemic)
6. COc1ccccc1N1CCN(CC(O)CN2C(=O)NC(C)(c3ccccc3)C2=O)CC1.Cl (racemic)
7. CC1(c2ccc(Cl)cc2)NC(=O)N(CC(O)CN2CCN(C(c3ccccc3)c3ccccc3)CC2)C1=O.Cl (racemic)

OUTPUT:
8.22
8.15
7.70
8.00
7.30
8.00
8.10
